Experimental target: butyrylcholinesterase (BChE) (Homo sapiens, UniProt P06276)
Sequence (P06276 29-602): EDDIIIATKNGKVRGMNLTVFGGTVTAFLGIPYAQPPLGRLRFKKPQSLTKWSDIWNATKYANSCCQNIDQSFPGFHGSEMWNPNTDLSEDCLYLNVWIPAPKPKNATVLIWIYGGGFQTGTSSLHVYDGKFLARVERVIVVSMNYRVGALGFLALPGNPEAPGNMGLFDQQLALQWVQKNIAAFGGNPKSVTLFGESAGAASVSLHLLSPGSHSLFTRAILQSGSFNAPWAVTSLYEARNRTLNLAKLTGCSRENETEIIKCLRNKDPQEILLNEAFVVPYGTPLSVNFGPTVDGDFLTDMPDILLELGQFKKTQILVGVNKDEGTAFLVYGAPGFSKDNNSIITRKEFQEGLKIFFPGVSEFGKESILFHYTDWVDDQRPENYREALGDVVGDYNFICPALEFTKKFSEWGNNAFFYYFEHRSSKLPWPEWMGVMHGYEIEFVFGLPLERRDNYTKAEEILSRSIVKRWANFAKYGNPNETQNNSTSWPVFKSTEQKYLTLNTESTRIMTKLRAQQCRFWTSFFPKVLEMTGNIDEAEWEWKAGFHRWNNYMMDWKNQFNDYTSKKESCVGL
Assay method text: biochemical
Format: biochemical
Readout label: IC50
Report the figure along with its unit, number first.

Chemical smiles	IC50
O=c1c(O)c(-c2ccc(F)cc2)oc2cc(Br)c(I)cc12	27 µM
O=c1c(O)c(-c2ccc(Cl)cc2)oc2cc(Br)c(I)cc12	5.25 µM
O=C(/C=C/c1ccccc1)c1cc(I)c(Br)cc1O	14.1 µM
COc1ccc(-c2oc3cc(F)c(I)cc3c(=O)c2O)cc1	29.4 µM
O=c1c(O)c(-c2ccc(Cl)cc2)oc2cc(Cl)c(I)cc12	7.69 µM

Give IC50 (butyrylcholinesterase (BChE) (Homo sapiens, UniProt P06276)) of the following molecule: `COc1ccc(/C=C/C(=O)c2cc(I)c(Br)cc2O)cc1` 15.2 µM

What IC50 appears in the records for this molecule with butyrylcholinesterase (BChE) (Homo sapiens, UniProt P06276)? `COc1ccc(/C=C/C(=O)c2cc(I)c(F)cc2O)cc1` 8.49 µM

Lab request: please report IC50 under test system butyrylcholinesterase (BChE) (Homo sapiens, UniProt P06276) for `O=c1c(O)c(-c2ccc(F)cc2)oc2cc(Cl)c(I)cc12` 18.2 µM

---

SI BChE/AChE for assorted compounds
Experimental target: acetylcholinesterase (AChE) (Homo sapiens, UniProt P22303)
Sequence (P22303 32-614): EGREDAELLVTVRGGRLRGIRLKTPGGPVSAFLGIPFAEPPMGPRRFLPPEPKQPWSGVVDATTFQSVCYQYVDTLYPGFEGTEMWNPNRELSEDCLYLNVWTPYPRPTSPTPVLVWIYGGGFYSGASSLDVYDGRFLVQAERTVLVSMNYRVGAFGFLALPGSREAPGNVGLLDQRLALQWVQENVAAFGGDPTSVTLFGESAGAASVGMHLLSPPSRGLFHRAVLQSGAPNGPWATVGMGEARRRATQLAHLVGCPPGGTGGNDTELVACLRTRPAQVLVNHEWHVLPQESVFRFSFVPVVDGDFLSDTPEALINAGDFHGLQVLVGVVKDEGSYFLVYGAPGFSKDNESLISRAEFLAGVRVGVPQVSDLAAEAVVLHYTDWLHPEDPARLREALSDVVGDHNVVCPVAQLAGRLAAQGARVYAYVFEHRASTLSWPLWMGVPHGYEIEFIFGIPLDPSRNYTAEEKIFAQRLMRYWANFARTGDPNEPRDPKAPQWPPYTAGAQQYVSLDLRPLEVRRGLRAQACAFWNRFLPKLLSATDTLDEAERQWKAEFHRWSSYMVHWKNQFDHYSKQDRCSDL
Assay method text: biochemical
Assay type: biochemical

Chemical smiles	SI BChE/AChE
COc1cc2oc(-c3ccc(Cl)cc3)c(O)c(=O)c2cc1I	0.24
COc1cc2oc(-c3ccccc3)c(O)c(=O)c2cc1I	1.14
O=C(/C=C/c1ccccc1)c1cc(I)c(Br)cc1O	0.24
COc1ccc(-c2oc3cc(OC)c(I)cc3c(=O)c2O)cc1	0.45
O=C(/C=C/c1ccc(F)cc1)c1cc(I)c(Cl)cc1O	1.87

# get_value(readout='SI BChE/AChE', item= `O=c1c(O)c(-c2ccc(F)cc2)oc2cc(Br)c(I)cc12` ) 2.42

I would be grateful if you could share the reported SI BChE/AChE for `COc1ccc(/C=C/C(=O)c2cc(I)c(Br)cc2O)cc1` . 1.45

Name the reported SI BChE/AChE value associated with the compound `O=C(/C=C/c1ccc(F)cc1)c1cc(I)c(Br)cc1O` 0.52

Recorded SI BChE/AChE of `O=C(/C=C/c1ccccc1)c1cc(I)c(Cl)cc1O` , please. 2.37

What value of SI BChE/AChE has been reported for the following compound? `COc1cc(O)c(C(=O)/C=C/c2ccc(F)cc2)cc1I` 0.63

---

Experimental target: UniProt P22303
Readout label: pKi
Please treat pKi as minus the base-10 logarithm of the molar concentration.

Give pKi (UniProt P22303) of the following molecule: `O=c1c(O)c(-c2ccc(F)cc2)oc2cc(F)c(I)cc12` 5.36

---

Experimental target: UniProtKB P06276
Assay method text: biochemical
Format: biochemical
Conditions: mean ± SD, three independent experiments
Readout label: pIC50
# reply with the number alone; pIC50 is -log10 of concentration in mol/L

Past entries and their recorded results:
Molecule	Readout label	Value
O=c1c(O)c(-c2ccc(Cl)cc2)oc2cc(F)c(I)cc12 [Compound 3c]	pIC50	4.43
COc1ccc(/C=C/C(=O)c2cc(I)c(OC)cc2O)cc1 [Compound 2p]	pIC50	5.31
O=c1c(O)c(-c2ccc(F)cc2)oc2cc(F)c(I)cc12 [Compound 3b]	pIC50	4.53
O=C(/C=C/c1ccc(F)cc1)c1cc(I)c(Br)cc1O [Compound 2j]	pIC50	5.24
COc1ccc(/C=C/C(=O)c2cc(I)c(Cl)cc2O)cc1 [Compound 2h]	pIC50	5.38

Name the recorded pIC50 for O=C(/C=C/c1ccc(Cl)cc1)c1cc(I)c(F)cc1O [Compound 2c] . 4.84

Need pIC50, item COc1ccc(-c2oc3cc(OC)c(I)cc3c(=O)c2O)cc1 [Compound 3p] 5.48

Entry under review: COc1cc(O)c(C(=O)/C=C/c2ccc(Cl)cc2)cc1I [Compound 2o] . Reported pIC50? 4.93

---

Experimental target: UniProtKB P22303
Assay method text: biochemical
Type: biochemical
pIC50: −log10 of the molar value.
Label fulfilled when pIC50 >= 5; otherwise not fulfilled.

Below are worked cases with known answers.
Chemical smiles	Experimental target	Class assignment
COc1cc2oc(-c3ccc(F)cc3)c(O)c(=O)c2cc1I	UniProtKB P22303	fulfilled
O=c1c(O)c(-c2ccc(F)cc2)oc2cc(Cl)c(I)cc12	UniProtKB P22303	not fulfilled
COc1ccc(-c2oc3cc(F)c(I)cc3c(=O)c2O)cc1	UniProtKB P22303	not fulfilled

# evaluate next
API: above_or_equal(metric=pIC50, cutoff=5) for item `COc1cc2oc(-c3ccc(Cl)cc3)c(O)c(=O)c2cc1I` not fulfilled

---

Experimental target: UniProtKB P06276
Assay method text: biochemical
Assay type: biochemical
Conditions: mean ± SD, three independent experiments
pIC50: −log10 of the molar value.
Please enter 1 where pIC50 is greater than or equal to 5, and 0 where it is lower.

Chemical smiles	Experimental target	Class assignment
O=C(/C=C/c1ccccc1)c1cc(I)c(F)cc1O	UniProtKB P06276	0

Record `COc1cc(O)c(C(=O)/C=C/c2ccc(F)cc2)cc1I` ; criterion: pIC50 no lower than 5. Met? 1

Kindly determine if pIC50 recorded for `O=C(/C=C/c1ccc(F)cc1)c1cc(I)c(Cl)cc1O` is above or exactly 5. 0

Determine whether this compound has pIC50 no lower than 5: `COc1ccc(-c2oc3cc(Cl)c(I)cc3c(=O)c2O)cc1` 1

---

This document collects pKi values reported for BChE (Homo sapiens, UniProt P06276).
Please report pKi as the negative decimal logarithm of the molar concentration, giving only the number.

Chemical smiles	Experimental target	pKi
COc1ccc(/C=C/C(=O)c2cc(I)c(Cl)cc2O)cc1	BChE (Homo sapiens, UniProt P06276)	5.87

Let us move to another entry and its pKi.
What does the data say about its pKi? Entry: `COc1ccc(-c2oc3cc(OC)c(I)cc3c(=O)c2O)cc1` 6.34

---

Experimental target: acetylcholinesterase (AChE) (Homo sapiens, UniProt P22303)
Assay method text: biochemical
Type: biochemical
Reported SI BChE/AChE is given for each of the following compounds.
No unit in the answer, only the number.

The examples below pair each entry with its known result.
Compound	Experimental target	SI BChE/AChE
COc1ccc(/C=C/C(=O)c2cc(I)c(OC)cc2O)cc1 [Compound 2p]	acetylcholinesterase (AChE) (Homo sapiens, UniProt P22303)	0.45
O=c1c(O)c(-c2ccccc2)oc2cc(Cl)c(I)cc12 [Compound 3e]	acetylcholinesterase (AChE) (Homo sapiens, UniProt P22303)	0.14
O=C(/C=C/c1ccccc1)c1cc(I)c(F)cc1O [Compound 2a]	acetylcholinesterase (AChE) (Homo sapiens, UniProt P22303)	0.72
O=C(/C=C/c1ccc(Cl)cc1)c1cc(I)c(Br)cc1O [Compound 2k]	acetylcholinesterase (AChE) (Homo sapiens, UniProt P22303)	0.90
COc1cc2oc(-c3ccc(F)cc3)c(O)c(=O)c2cc1I [Compound 3n]	acetylcholinesterase (AChE) (Homo sapiens, UniProt P22303)	1.29

Now consider the entry below.
API: value(readout=SI BChE/AChE, system=acetylcholinesterase (AChE) (Homo sapiens, UniProt P22303)) for record COc1ccc(/C=C/C(=O)c2cc(I)c(Cl)cc2O)cc1 [Compound 2h] 0.36

---

Experimental target: UniProt:P22303
Assay method text: biochemical
Format: biochemical
pIC50 values for the molecules below.
Scale explanation: pIC50 corresponds to minus log10 of a concentration expressed in moles per litre.

Example molecules with recorded pIC50:
Chemical smiles	pIC50
O=C(/C=C/c1ccc(Cl)cc1)c1cc(I)c(Cl)cc1O	4.96
O=c1c(O)c(-c2ccc(Cl)cc2)oc2cc(Cl)c(I)cc12	4.23

What measured pIC50 goes with `O=c1c(O)c(-c2ccccc2)oc2cc(Br)c(I)cc12` ? 5.00

Item under review: `O=c1c(O)c(-c2ccccc2)oc2cc(Cl)c(I)cc12` . Reported pIC50? 4.32

Give its pIC50 value. Item: `O=c1c(O)c(-c2ccc(Cl)cc2)oc2cc(Br)c(I)cc12` 4.53

---

Experimental target: butyrylcholinesterase (BChE) (Homo sapiens)
Assay method text: biochemical
Type: biochemical
Readout label: SI AChE/BChE

Which SI AChE/BChE value belongs to `COc1cc2oc(-c3ccccc3)c(O)c(=O)c2cc1I` ? 0.88

---

Experimental target: BACE-1 (Homo sapiens)
Sequence (P56817 46-501): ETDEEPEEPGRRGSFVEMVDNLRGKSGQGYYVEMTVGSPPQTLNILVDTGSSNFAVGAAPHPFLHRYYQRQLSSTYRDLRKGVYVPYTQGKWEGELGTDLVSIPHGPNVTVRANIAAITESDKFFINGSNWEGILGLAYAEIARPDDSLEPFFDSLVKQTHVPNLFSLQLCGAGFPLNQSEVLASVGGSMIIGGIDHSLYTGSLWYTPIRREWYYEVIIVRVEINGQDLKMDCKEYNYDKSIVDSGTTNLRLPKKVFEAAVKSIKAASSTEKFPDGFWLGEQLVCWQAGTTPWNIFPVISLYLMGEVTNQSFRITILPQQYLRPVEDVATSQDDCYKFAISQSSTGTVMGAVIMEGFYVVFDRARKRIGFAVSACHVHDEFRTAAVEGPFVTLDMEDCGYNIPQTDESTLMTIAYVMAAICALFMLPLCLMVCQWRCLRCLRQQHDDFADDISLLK
Readout label: log10 IC50 (log10 of the value in µM)
Reminder: these figures are log10 of reported IC50, in µM before transformation.

Worked cases, log10 IC50 given:
Chemical smiles	log10 IC50
COc1ccc(-c2oc3cc(Br)c(I)cc3c(=O)c2O)cc1	1.20
O=c1c(O)c(-c2ccc(Cl)cc2)oc2cc(F)c(I)cc12	1.29
COc1cc(O)c(C(=O)/C=C/c2ccc(F)cc2)cc1I	1.40
O=C(/C=C/c1ccc(F)cc1)c1cc(I)c(Br)cc1O	0.67
COc1ccc(-c2oc3cc(OC)c(I)cc3c(=O)c2O)cc1	1.35
O=c1c(O)c(-c2ccc(F)cc2)oc2cc(F)c(I)cc12	1.51
COc1ccc(/C=C/C(=O)c2cc(I)c(OC)cc2O)cc1	1.85

Quick one: log10 IC50 for `COc1ccc(/C=C/C(=O)c2cc(I)c(Cl)cc2O)cc1` ? 1.14
